# target under test: SALL4 ZFC4 G921D (HT-SELEX) (Mus musculus, UniProt Q8BX22 870-940, G921D)
# Sequence: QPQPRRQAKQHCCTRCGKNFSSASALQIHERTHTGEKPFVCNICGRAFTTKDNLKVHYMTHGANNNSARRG
# assay notes: HT-SELEX; high values mean tight binding
# reported conditions: protein: recombinant; vector His6-GST; dsDNA, one strand shown
property label: binding signal
Report field: quantity (unit follows the number).

Supply reported binding signal belonging to this sequence: `AAAAGG` 1.18 fold-change vs cycle 0

----------
binding signal values by entry
# target under test: SALL4 ZFC4 WT (HT-SELEX) (Mus musculus, UniProt Q8BX22 870-940)
# Sequence: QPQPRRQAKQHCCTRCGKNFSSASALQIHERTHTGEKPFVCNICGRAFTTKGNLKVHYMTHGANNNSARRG
# assay notes: HT-SELEX; high values mean tight binding
# reported conditions: protein: recombinant; vector His6-GST; dsDNA, one strand shown
Please reply with the bare figure in fold-change vs cycle 0 and do not write the unit itself.

Some sequences with known binding signal results, for comparison:
entry sequence	binding signal (fold-change vs cycle 0)
TATGAA	3.56
GCTTTA	0.998

For the next question, use this sequence.
Send back SALL4 ZFC4 WT (HT-SELEX) (Mus musculus, UniProt Q8BX22 870-940) binding signal of `AAGCCT` only. 0.633
